Data provenance is patent US20260355212A1.

assay.target: SARS-CoV-1 Mpro (Severe acute respiratory syndrome coronavirus, UniProt P0C6X7)
test: biochemical
The label is label 1 for IC50 below 0.06 µM and label 0 for IC50 equal to or exceeding 0.06 µM.

The following molecules have reported results that may help.
CCOc1ccc2[nH]c(C(=O)N3C[C@H]4[C@@H]([C@H]3C(=O)N[C@H](C=O)C[C@@H]3CCNC3=O)C4(C)C)cc2c1	label 0
CC1(C)[C@@H]2[C@@H](C(=O)N[C@H](C=O)C[C@@H]3CCCNC3=O)N(C(=O)c3cc4ccccc4[nH]3)C[C@@H]21	label 1
CCc1cccc2[nH]c(C(=O)N3C[C@H]4[C@@H]([C@H]3C(=O)N[C@H](C=O)C[C@@H]3CCNC3=O)C4(C)C)cc12	label 1
CC1(C)[C@@H]2[C@@H](C(=O)N[C@H](C=O)C[C@@H]3CCNC3=O)N(C(=O)c3cc4ncccc4[nH]3)C[C@@H]21	label 0
CC1(C)C[C@@H](C(=O)N[C@H](C=O)C[C@@H]2CCNC2=O)N(C(=O)c2cc3cccc(C#N)c3[nH]2)C1	label 0
CC1(C)[C@@H]2[C@@H](C(=O)N[C@H](C=O)C[C@@H]3CCNC3=O)N(C(=O)CC3CCOCC3)C[C@@H]21	label 0

hey, is IC50 for CC1(C)[C@@H]2[C@@H](C(=O)N[C@H](C=O)C[C@@H]3CCNC3=O)N(C(=O)c3cc4ccccc4[nH]3)C[C@@H]21 lower than 0.06 µM or not?
label 1

O=C[C@H](C[C@@H]1CCNC1=O)NC(=O)[C@@H]1[C@H]2CCC[C@H]2CN1C(=O)c1cc2ccccc2[nH]1 , same question.
label 0

* * *

assay.target: HCoV-OC43 Mpro (Human coronavirus OC43, UniProt P0C6X6)
Sequence (P0C6X6 3247-3549 limits assumed): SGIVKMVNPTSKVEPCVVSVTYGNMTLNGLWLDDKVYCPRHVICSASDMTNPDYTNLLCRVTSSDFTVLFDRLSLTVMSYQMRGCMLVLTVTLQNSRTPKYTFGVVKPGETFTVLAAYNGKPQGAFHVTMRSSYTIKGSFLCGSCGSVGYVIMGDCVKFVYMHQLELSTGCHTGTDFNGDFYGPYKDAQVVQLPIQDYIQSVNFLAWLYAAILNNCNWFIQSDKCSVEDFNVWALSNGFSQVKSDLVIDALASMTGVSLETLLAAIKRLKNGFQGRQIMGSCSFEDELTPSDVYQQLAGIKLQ
test: HCoV-OC43 Mpro enzymatic inhibition assay (fluorescence)
Format: biochemical
Could you please report measured IC50 for the items listed next?
Give bare numbers, in nM.

O=C[C@H](C[C@@H]1CCNC1=O)NC(=O)[C@@H]1C[C@@H]2CCCC[C@@H]2N1C(=O)c1cc2ccccc2[nH]1 [Compound 113]	79.3
O=C[C@H](C[C@@H]1CCNC1=O)NC(=O)[C@@H]1C[C@@H](C2CCCCC2)CN1C(=O)c1cc2cccc(F)c2[nH]1 [Compound 71]	133

With those in mind, consider the next molecule.
Sample CC1(C)[C@@H]2[C@@H](C(=O)N[C@H](C=O)C[C@@H]3CCNC3=O)N(C(=O)c3cc4cc5c(cc4[nH]3)OCO5)C[C@@H]21 [Compound 27] — what was its IC50?
89.2

* * *

assay.target: MERS Mpro (Middle East respiratory syndrome-related coronavirus)
test: biochemical
Set-up: species or system MERS-CoV
Could you please report measured pIC50 for the items listed next?
One number for each entry, as −log10 of the molar value.

Would you please look over these solved cases?
COc1ccc(Cl)c2[nH]c(C(=O)N3C[C@H]4[C@@H]([C@H]3C(=O)N[C@H](C=O)C[C@@H]3CCNC3=O)C4(C)C)cc12 [Compound 28]	6.65
Cc1ccc2cc(C(=O)N3C[C@H]4[C@@H]([C@H]3C(=O)N[C@H](C=O)C[C@@H]3CCNC3=O)C4(C)C)[nH]c2c1C [Compound 18]	6.52
Cn1c(C(=O)N2C[C@H]3[C@@H]([C@H]2C(=O)N[C@H](C=O)C[C@@H]2CCNC2=O)C3(C)C)cc2cc(Cl)ccc21 [Compound 90]	6.18
CO[C@H]1C[C@@H](C(=O)N[C@H](C=O)C[C@@H]2CCNC2=O)N(C(=O)c2cc3ccccc3[nH]2)C1 [Compound 102]	6.20
CC1(C)[C@@H]2[C@@H](C(=O)N[C@H](C=O)C[C@@H]3CCNC3=O)N(C(=O)C3CCCC3)C[C@@H]21 [Compound 124]	5.70

State recorded pIC50 for all listed molecules.
1. CC1(C)[C@@H]2[C@@H](C(=O)N[C@H](C=O)C[C@@H]3CCNC3=O)N(C(=O)C3(c4ccccc4)CCCC3)C[C@@H]21 [Compound 17]
2. Cn1c(C(=O)N2C[C@H]3[C@@H]([C@H]2C(=O)N[C@H](C=O)C[C@@H]2CCNC2=O)C3(C)C)cc2c(F)cccc21 [Compound 100]

1: 6.56; 2: 6.06

Parameter requested: pIC50. Apply to each item below.
1. C[C@@H](C(=O)N1C[C@H]2[C@@H]([C@H]1C(=O)N[C@H](C=O)C[C@@H]1CCNC1=O)C2(C)C)c1ccccc1 [Compound 37]
2. O=C[C@H](C[C@@H]1CCNC1=O)NC(=O)[C@@H]1[C@H]2C[C@H](F)[C@H](C2)N1C(=O)c1cc2ccccc2[nH]1 [Compound 106]

6.62
6.07

* * *

assay.target: UniProt P0C6X1
Sequence (P0C6X1 2966-3267 limits assumed): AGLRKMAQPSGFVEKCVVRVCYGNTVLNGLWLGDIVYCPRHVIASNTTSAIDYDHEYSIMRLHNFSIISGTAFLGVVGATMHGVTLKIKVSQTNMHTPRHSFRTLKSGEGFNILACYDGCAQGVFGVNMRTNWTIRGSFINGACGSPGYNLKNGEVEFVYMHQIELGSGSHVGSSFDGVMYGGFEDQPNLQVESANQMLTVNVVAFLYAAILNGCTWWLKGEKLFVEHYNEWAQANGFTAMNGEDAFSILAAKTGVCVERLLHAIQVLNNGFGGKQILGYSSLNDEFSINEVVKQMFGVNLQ
test: HCoV-229E Mpro enzymatic inhibition assay (fluorescence)
Format: biochemical
readout.label: pIC50
Numbers only, as −log10 of the molar value.

CC1(C)C[C@@H](C(=O)N[C@H](C=O)C[C@@H]2CCNC2=O)N(C(=O)c2cc3cccc(F)c3[nH]2)C1	7.19
CC1(C)[C@@H]2[C@@H](C(=O)N[C@H](C=O)C[C@@H]3CCNC3=O)N(C(=O)CC3CCOCC3)C[C@@H]21	7.47
C[C@@H]1C[C@@H](C(=O)N[C@H](C=O)C[C@@H]2CCNC2=O)N(C(=O)c2cc3ccccc3[nH]2)C1	7.35

Report pIC50 for each item below.
1. COc1ccc(F)c2[nH]c(C(=O)N3C[C@H]4[C@@H]([C@H]3C(=O)N[C@H](C=O)C[C@@H]3CCNC3=O)C4(C)C)cc12
2. O=C[C@H](C[C@@H]1CCNC1=O)NC(=O)[C@@H]1CC2(CC2)CN1C(=O)c1cc2ccccc2[nH]1
3. CC1(C)[C@@H]2[C@@H](C(=O)N[C@H](C=O)C[C@@H]3CCNC3=O)N(C(=O)c3[nH]c4ccccc4c3-c3ccccc3)C[C@@H]21
4. CC1(C)C[C@@H](C(=O)N[C@H](C=O)C[C@@H]2CCNC2=O)N(C(=O)c2cc3c(F)cccc3[nH]2)C1
5. O=C[C@H](C[C@@H]1CCNC1=O)NC(=O)[C@@H]1C[C@@H](C2CCCCC2)CN1C(=O)c1cc2c(F)cccc2[nH]1
6. CCOc1ccc2[nH]c(C(=O)N3C[C@H]4[C@@H]([C@H]3C(=O)N[C@H](C=O)C[C@@H]3CCNC3=O)C4(C)C)cc2c1
7. CC1(C)[C@@H]2[C@@H](C(=O)N[C@H](C=O)C[C@@H]3CCNC3=O)N(C(=O)c3cc4ccccc4[nH]3)C[C@@H]21

7.48
7.32
6.76
7.56
7.38
7.08
7.27

* * *

assay.target: MERS Mpro (Middle East respiratory syndrome-related coronavirus, UniProt K9N7C7)
Sequence (K9N7C7 3248-3553 limits assumed): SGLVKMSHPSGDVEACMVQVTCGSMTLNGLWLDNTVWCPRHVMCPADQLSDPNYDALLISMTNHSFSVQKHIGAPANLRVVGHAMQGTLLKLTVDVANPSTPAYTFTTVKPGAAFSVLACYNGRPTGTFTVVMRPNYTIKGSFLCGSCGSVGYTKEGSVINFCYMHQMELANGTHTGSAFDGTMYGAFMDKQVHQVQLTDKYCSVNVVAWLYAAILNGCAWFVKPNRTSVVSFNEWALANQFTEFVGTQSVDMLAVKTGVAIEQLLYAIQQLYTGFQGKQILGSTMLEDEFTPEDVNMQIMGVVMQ
test: biochemical
Parameters: species or system MERS-CoV
Response field label takes Y when IC50 is strictly below 300 nM and N in all other cases.

Examples from the recorded data:
Cc1cccc2cc(C(=O)N3C[C@H]4[C@@H]([C@H]3C(=O)N[C@H](C=O)C[C@@H]3CCNC3=O)C4(C)C)[nH]c12	Y
O=C[C@H](C[C@@H]1CCNC1=O)NC(=O)[C@@H]1C[C@@H]2C[C@@H]2N1C(=O)c1cc2ccccc2[nH]1	N
CC1CCC(CC(=O)N2C[C@H]3[C@@H]([C@H]2C(=O)N[C@H](C=O)C[C@@H]2CCNC2=O)C3(C)C)CC1 (stereo partly shown)	Y
O=C[C@H](C[C@@H]1CCNC1=O)NC(=O)[C@@H]1C[C@@H](C2CCCCC2)CN1C(=O)c1cc2cccc(Cl)c2[nH]1	N
O=C[C@H](C[C@@H]1CCNC1=O)NC(=O)[C@@H]1[C@H]2C[C@H]2CN1C(=O)c1cc2ccccc2[nH]1	N

API: query returns whether the compound falls strictly under 300 nM in IC50. Query: CCOc1ccc2[nH]c(C(=O)N3C[C@H]4[C@@H]([C@H]3C(=O)N[C@H](C=O)C[C@@H]3CCNC3=O)C4(C)C)cc2c1
N

Now try CC(C)(C)CCC(=O)N1C[C@H]2[C@@H]([C@H]1C(=O)N[C@H](C=O)C[C@@H]1CCNC1=O)C2(C)C .
N

Now try CC1(C)[C@@H]2[C@@H](C(=O)N[C@H](C#N)C[C@@H]3CCNC3=O)N(C(=O)C3(c4ccccc4)CC3)C[C@@H]21 .
N

// same read-out, input: Cc1cccc([C@@H](C)C(=O)N2C[C@H]3[C@@H]([C@H]2C(=O)N[C@H](C=O)C[C@@H]2CCNC2=O)C3(C)C)c1
Y

Now the same for COc1cccc2cc(C(=O)N3C[C@H]4[C@@H]([C@H]3C(=O)N[C@H](C=O)C[C@@H]3CCNC3=O)C4(C)C)[nH]c12
N

What about CC1(C)[C@@H]2[C@@H](C(=O)N[C@H](C=O)C[C@@H]3CCNC3=O)N(C(=O)C3(O)CCCCC3)C[C@@H]21 ?
N

Same again, this time with C[C@H](C(=O)N1C[C@H]2[C@@H]([C@H]1C(=O)N[C@H](C=O)C[C@@H]1CCNC1=O)C2(C)C)C1CCCCC1
N

Entry to check: CC1(C)[C@@H]2[C@@H](C(=O)N[C@H](C=O)C[C@@H]3CCNC3=O)N(C(=O)c3cc4c(C#N)cccc4[nH]3)C[C@@H]21
Y

Lookup COc1ccc(F)c2[nH]c(C(=O)N3C[C@H]4[C@@H]([C@H]3C(=O)N[C@H](C=O)C[C@@H]3CCNC3=O)C4(C)C)cc12
Y
